Just for reference, patent US20240325555A1 is where these values come from.

Would you kindly list EC50 for each of these binders?
Target: T1, human LIV-1 (human, UniProt Q13433 29-755)
T1 construct: whole, on cells; also called H-LIV1
T1 sequence (looked up): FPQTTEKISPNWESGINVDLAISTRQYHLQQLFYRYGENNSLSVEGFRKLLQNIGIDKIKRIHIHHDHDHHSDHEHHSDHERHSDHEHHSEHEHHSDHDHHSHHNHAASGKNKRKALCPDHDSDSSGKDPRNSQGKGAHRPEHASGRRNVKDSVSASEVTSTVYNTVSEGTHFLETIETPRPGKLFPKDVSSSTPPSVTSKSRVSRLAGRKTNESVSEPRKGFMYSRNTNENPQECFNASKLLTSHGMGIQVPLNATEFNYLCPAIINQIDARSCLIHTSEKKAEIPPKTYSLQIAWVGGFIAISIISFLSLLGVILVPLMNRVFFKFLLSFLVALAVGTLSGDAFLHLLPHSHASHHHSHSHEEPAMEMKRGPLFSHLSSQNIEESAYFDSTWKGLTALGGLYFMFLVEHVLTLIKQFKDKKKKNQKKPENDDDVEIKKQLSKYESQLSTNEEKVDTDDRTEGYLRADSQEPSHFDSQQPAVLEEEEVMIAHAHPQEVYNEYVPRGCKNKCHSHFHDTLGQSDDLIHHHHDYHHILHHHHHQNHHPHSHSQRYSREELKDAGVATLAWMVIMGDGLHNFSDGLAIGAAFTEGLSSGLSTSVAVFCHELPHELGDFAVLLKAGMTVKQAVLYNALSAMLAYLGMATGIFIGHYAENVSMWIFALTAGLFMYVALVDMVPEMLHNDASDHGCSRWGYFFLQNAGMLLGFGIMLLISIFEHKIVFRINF
Assay: FACS, HEK293/H_LIV-1 cells
Answers are plain numbers, in nM.

Answered cases to consult:
binder	unit-descriptor	experimental-result
5D6B10.Z13 (antibody, V domains shown) VH: QVQLQQSGPGLVKPSGTLSLTCTVSGFSLTTYGIHWVRQSPGKGLEWLGVIWTGGTTDYNAAFISRLTISKDKSKNQVFFKMSSLTAADTAVYYCARGPSSYWGQGTLVTVSS VL: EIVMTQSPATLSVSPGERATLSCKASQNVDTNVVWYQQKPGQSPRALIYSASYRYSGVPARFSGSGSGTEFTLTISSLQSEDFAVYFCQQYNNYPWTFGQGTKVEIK	nM	0.33
5D6B10.Z4 (antibody, V domains shown) VH: QVQLVESGGGVVQPGRSLRLSCTVSGFSLTTYGIHWVRQSPGKGLEWLGVIWTGGTTDYNAAFISRLTISKDNSKSTLYFQMNSLRAEDTAVYYCARGPSSYWGQGTLVTVSS VL: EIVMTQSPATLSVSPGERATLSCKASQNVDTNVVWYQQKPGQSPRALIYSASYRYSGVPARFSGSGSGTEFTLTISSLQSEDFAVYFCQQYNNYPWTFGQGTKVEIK	nM	0.28

Query block: Record request: EC50 value, item 5D6B10.Z10 (antibody, V domains shown) VH: QVQLQESGPGLVKPSGTLSLTCAVSGFSLTTYGIHWVRQSPGKGLEWLGVIWTGGTTDYNAAFISRLTISKDKSKNQVSLKLSSVTAADTAVYYCARGPSSYWGQGTLVTVSS VL: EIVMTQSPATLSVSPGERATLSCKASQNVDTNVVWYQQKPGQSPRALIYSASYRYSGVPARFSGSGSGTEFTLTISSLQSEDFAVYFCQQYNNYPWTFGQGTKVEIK
Result block: 0.42
